# Tested on: Common cutworm (Spodoptera litura)
# Type: in vivo
# particulars: 500 ppm; cabbage leaf immersed about 30 seconds; second-instar larvae; eight days after the inoculation; 25° C.
measure_name: insecticidal effect (activity ranking by mortality)

[[record]]
compound = "CSCC(C)(C)NC(=O)c1c(I)cccc1C(=O)Nc1ccc(C(F)(C(F)(F)F)C(F)(F)F)nc1SC"
meas_value = "B or higher"

[[record]]
compound = "CSCC(C)NC(=O)c1c(I)cccc1C(=O)Nc1ccc(OC(F)(F)C(F)OC(F)(F)C(F)(F)C(F)(F)F)nc1Cl (stereo not shown)"
meas_value = "B or higher"

[[record]]
compound = "CC(C)NC(=O)c1c(I)cccc1C(=O)Nc1ccc(C(F)(F)C(F)(F)F)nc1"
meas_value = "B or higher"

[[record]]
compound = "CCN(CC)C(=O)c1c(I)cccc1C(=O)Nc1ccc(C(F)(C(F)(F)F)C(F)(F)F)nc1Cl"
meas_value = "B or higher"


----------
# Tested on: Common cutworm (Spodoptera litura)
# Assay type: in vivo
# particulars: 500 ppm; cabbage leaf immersed about 30 seconds; second-instar larvae; eight days after the inoculation; 25° C.
measure_name: insecticidal effect (activity ranking by mortality)

[[record]]
compound = "CCN(CC)C(=O)c1c(I)cccc1C(=O)Nc1ccc(C(F)(F)C(F)(F)C(F)(F)F)nc1Cl"
meas_value = "B or higher"

[[record]]
compound = "CC(C)(CS(C)(=O)=O)NC(=O)c1c(I)cccc1C(=O)Nc1ccc(C(F)(C(F)(F)F)C(F)(F)F)nc1Cl"
meas_value = "B or higher"

[[record]]
compound = "CC(C)(C)NC(=O)c1c(I)cccc1C(=O)Nc1ccc(C(F)(C(F)(F)F)C(F)(F)F)nc1"
meas_value = "B or higher"

[[record]]
compound = "C[S+]([O-])CC(C)(C)NC(=O)c1c(I)cccc1C(=O)Nc1ccc(C(F)(C(F)(F)F)C(F)(F)F)nc1Cl (stereo not shown)"
meas_value = "B or higher"

[[record]]
compound = "Cc1nc(OC(C(F)(F)F)C(F)(F)F)ccc1NC(=O)c1cccc(C(F)(F)F)c1C(=O)NC(C)(C)C[S+](C)[O-] (stereo not shown)"
meas_value = "B or higher"

[[record]]
compound = "Cc1nc(C(F)(C(F)(F)F)C(F)(F)F)ccc1NC(=O)c1cccc(I)c1C(=O)NC(C)C"
meas_value = "B or higher"

[[record]]
compound = "CC(C)NC(=O)c1c(I)cccc1C(=O)Nc1ccc(C(F)(C(F)(F)F)C(F)(F)F)nc1"
meas_value = "B or higher"

[[record]]
compound = "CC(C)NC(=O)c1c(Cl)cccc1C(=O)Nc1ccc(Oc2ccc(Br)cc2)nc1"
meas_value = "B or higher"

[[record]]
compound = "Cc1nc(OC(F)(F)C(F)F)ccc1NC(=O)c1cccc(I)c1C(=O)NC(C)C"
meas_value = "B or higher"

[[record]]
compound = "CC(C)NC(=O)c1ccccc1C(=O)Nc1ncc(C(F)(F)F)cc1Cl"
meas_value = "B or higher"

[[record]]
compound = "Cc1nc(OC(C(F)(F)F)C(F)(F)F)ccc1NC(=O)c1cccc([N+](=O)[O-])c1C(=O)NC(C)(C)CS(C)(=O)=O"
meas_value = "B or higher"

[[record]]
compound = "COc1nc(C(F)(C(F)(F)F)C(F)(F)F)ccc1NC(=O)c1cccc(I)c1C(=O)NC(C)CSC (stereo not shown)"
meas_value = "B or higher"

[[record]]
compound = "CSCC(C)(C)NC(=O)c1c(I)cccc1C(=O)Nc1ccc(OC(F)(F)C(F)F)nc1Cl"
meas_value = "B or higher"

[[record]]
compound = "CC(C)NC(=O)c1c(I)cccc1C(=O)Nc1ccc(C(F)(C(F)(F)F)C(F)(F)F)nc1[S+](C)[O-] (stereo not shown)"
meas_value = "B or higher"

[[record]]
compound = "Cc1nc(OC(C(F)(F)F)C(F)(F)F)ccc1NC(=O)c1cccc(C(F)(F)F)c1C(=O)NC(C)C"
meas_value = "B or higher"

[[record]]
compound = "CCN(CC)C(=O)c1c(I)cccc1C(=O)Nc1ncc(C(F)(F)C(F)(F)F)cc1C"
meas_value = "B or higher"

